targetOfAssay: HNF4alpha2 (COS-7 nuclear extract) (Homo sapiens, UniProt P41235 1-474)
Sequence: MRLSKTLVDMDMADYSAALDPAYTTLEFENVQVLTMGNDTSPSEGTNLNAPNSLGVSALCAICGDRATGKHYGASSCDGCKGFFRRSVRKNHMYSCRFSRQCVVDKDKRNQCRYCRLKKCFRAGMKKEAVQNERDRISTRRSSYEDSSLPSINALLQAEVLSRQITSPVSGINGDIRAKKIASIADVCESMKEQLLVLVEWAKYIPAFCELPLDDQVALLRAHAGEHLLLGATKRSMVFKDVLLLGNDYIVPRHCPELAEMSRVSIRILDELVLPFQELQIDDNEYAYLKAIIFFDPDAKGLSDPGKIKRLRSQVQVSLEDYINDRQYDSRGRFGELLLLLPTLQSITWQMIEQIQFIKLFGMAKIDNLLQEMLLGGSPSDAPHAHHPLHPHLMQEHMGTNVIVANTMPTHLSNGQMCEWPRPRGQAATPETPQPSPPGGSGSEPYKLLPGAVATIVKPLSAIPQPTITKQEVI
assay: protein-binding microarray; COS-7 nuclear extract on double-stranded Agilent 4x180k PBM; binding buffer, salt, pH and temperature not given in the material; high values mean tight binding
conditionParameters: chain copies: 2; label: 3' end of strand 1 on the slide; dsDNA, one strand shown
Over roughly 18,000 sequences, “log2 normalized intensity” has its median near 0.39; the highest 2% begin near 6.6. What follows is part of a selection rich in the highest values, with near analogues and random picks from the rest.
Response key: 1 (yes) means binding signal >= 2 log2 normalized intensity; 0 (no) means binding signal < 2 log2 normalized intensity.

INSERT INTO assay_data (monomersequence, assignedcategory) VALUES
  ('GCCAATTCAGCAAACAAAGGCACTTCTCTCGCCTAGGGAGATTAGAGTATCGGTCGA', '0 (no)'),
  ('GCAGTTCCTGATCTTTGACCTGGAGCATGAGCCTAGGGAGATTAGAGTATCGGTCGA', '1 (yes)'),
  ('TAGACCAGCCAATTCTACTGGAAGTAGGTAGCCTAGGGAGATTAGAGTATCGGTCGA', '0 (no)'),
  ('GTAGGGCCAATCTCTGGCATGTATTTATCAGCCTAGGGAGATTAGAGTATCGGTCGA', '0 (no)'),
  ('ACTTGTTCCCTGTCGCTATCTTATCTGGGCGCCTAGGGAGATTAGAGTATCGGTCGA', '0 (no)'),
  ('TGAGACATTTTGTCTTTTCTCCCCTGACTAGCCTAGGGAGATTAGAGTATCGGTCGA', '1 (yes)');

* * *

Measured binding signal, listed per entry for reference.
targetOfAssay: HNF4alpha2 (COS-7 nuclear extract) (Homo sapiens, UniProt P41235 1-474)
Sequence: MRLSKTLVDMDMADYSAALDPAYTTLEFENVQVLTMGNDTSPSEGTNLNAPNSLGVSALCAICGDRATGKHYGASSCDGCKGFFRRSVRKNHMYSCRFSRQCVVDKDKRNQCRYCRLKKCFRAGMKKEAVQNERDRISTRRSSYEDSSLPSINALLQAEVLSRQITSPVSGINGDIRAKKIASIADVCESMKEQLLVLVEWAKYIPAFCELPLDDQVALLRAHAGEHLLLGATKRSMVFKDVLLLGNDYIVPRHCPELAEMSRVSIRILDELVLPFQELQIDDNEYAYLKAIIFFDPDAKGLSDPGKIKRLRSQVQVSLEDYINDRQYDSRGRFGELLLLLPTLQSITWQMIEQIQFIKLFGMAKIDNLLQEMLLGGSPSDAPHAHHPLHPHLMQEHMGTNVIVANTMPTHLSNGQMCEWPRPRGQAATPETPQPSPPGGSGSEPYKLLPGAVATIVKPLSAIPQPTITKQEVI
assay: protein-binding microarray; COS-7 nuclear extract on double-stranded Agilent 4x180k PBM; binding buffer, salt, pH and temperature not given in the material; high values mean tight binding
conditionParameters: chain copies: 2; label: 3' end of strand 1 on the slide; dsDNA, one strand shown
The full ranking holds about 18,000 sequences; the median of “log2 normalized intensity” is about 0.39, and the highest 2% start at about 6.6. The sample as a whole holds a higher share of the highest values than the screen did.
reportedEndpoint: binding signal (log2 normalized intensity)

INSERT INTO assay_data (monomersequence, reportedendpoint, unitofmeasure, observed) VALUES
  ('ACGCCCCACCCCCTCCACCCCTGCCTTTCAGCCTAGGGAGATTAGAGTATCGGTCGA', 'binding signal', 'log2 normalized intensity', 6.39),
  ('CATTCACATGACCTTTGTCCGTTCCTGCCTGCCTAGGGAGATTAGAGTATCGGTCGA', 'binding signal', 'log2 normalized intensity', 5.92),
  ('TCAGCCCACAGGTCAATCCAGGTTGCTGCCGCCTAGGGAGATTAGAGTATCGGTCGA', 'binding signal', 'log2 normalized intensity', -0.646),
  ('ATCCCGTGGACTTTGCCTGCCCATCCCGTGGCCTAGGGAGATTAGAGTATCGGTCGA', 'binding signal', 'log2 normalized intensity', 3.13),
  ('AGGTTAAGACTTTGAATCAGTAAATATTTGGCCTAGGGAGATTAGAGTATCGGTCGA', 'binding signal', 'log2 normalized intensity', 0.901),
  ('TCTTTGCCCTCTTGGTATCAGCTTTGAGACGCCTAGGGAGATTAGAGTATCGGTCGA', 'binding signal', 'log2 normalized intensity', 1.42);

* * *

# binding signal annotations
targetOfAssay: HNF4alpha2 (COS-7 nuclear extract) (Homo sapiens, UniProt P41235 1-474)
Sequence: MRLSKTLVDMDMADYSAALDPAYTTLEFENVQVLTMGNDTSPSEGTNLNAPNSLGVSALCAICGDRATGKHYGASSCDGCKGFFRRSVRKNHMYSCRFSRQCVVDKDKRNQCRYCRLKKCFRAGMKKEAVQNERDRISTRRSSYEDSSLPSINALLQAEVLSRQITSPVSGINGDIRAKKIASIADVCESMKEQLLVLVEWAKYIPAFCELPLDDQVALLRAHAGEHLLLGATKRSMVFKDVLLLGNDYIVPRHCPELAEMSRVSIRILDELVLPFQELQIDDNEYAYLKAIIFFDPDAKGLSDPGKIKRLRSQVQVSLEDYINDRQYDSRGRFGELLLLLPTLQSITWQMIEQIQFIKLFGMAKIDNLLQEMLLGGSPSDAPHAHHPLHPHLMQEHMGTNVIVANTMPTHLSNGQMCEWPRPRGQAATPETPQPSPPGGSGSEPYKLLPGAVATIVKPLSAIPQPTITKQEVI
assay: protein-binding microarray; COS-7 nuclear extract on double-stranded Agilent 4x180k PBM; binding buffer, salt, pH and temperature not given in the material; high values mean tight binding
conditionParameters: chain copies: 2; label: 3' end of strand 1 on the slide; dsDNA, one strand shown
In all, about 18,000 sequences were measured (“log2 normalized intensity”: median about 0.39, highest 2% from about 6.6 on). The sample holds the highest values, similar sequences and a random draw of the others, so the mix is not that of the screen.
reportedEndpoint: binding signal (log2 normalized intensity)

INSERT INTO results (monomersequence, reportedendpoint, observed) VALUES
  ('GGGCAGGGTCAGAACCTGCCCATGACCTTTGCCTAGGGAGATTAGAGTATCGGTCGA', 'binding signal', 5.92),
  ('AACGGCCCAGGGTTAGAGGATGACCTTCCCGCCTAGGGAGATTAGAGTATCGGTCGA', 'binding signal', 2.99),
  ('GAACTTTGACTTATTTAGTAGTGGCAAGAGGCCTAGGGAGATTAGAGTATCGGTCGA', 'binding signal', 2.7),
  ('TGGTTTTATGGTGTCTTATCTTCCTCTGGCGCCTAGGGAGATTAGAGTATCGGTCGA', 'binding signal', 1.96),
  ('AACTGTACTTTGGACTGGGGACCTGGTCTGGCCTAGGGAGATTAGAGTATCGGTCGA', 'binding signal', 4.13),
  ('CACTTCTGAAAAAAATATTGAACAAAGATTGCCTAGGGAGATTAGAGTATCGGTCGA', 'binding signal', -0.491),
  ('CGCTCCCCTCCCCCACCCGCGGTCCGTCCCGCCTAGGGAGATTAGAGTATCGGTCGA', 'binding signal', 5.86),
  ('TCCCTTTAGTGGAGTATAGGAACATGAACTGCCTAGGGAGATTAGAGTATCGGTCGA', 'binding signal', 1.96),
  ('TGGGCTCGGCGCTCCGCTTACTCGGCCTGGGCCTAGGGAGATTAGAGTATCGGTCGA', 'binding signal', -0.994),
  ('CGACCTCCCCGTCACCCTCCCCGCCACCCCGCCTAGGGAGATTAGAGTATCGGTCGA', 'binding signal', 6.67),
  ('ACAAGCAACCCTCCTCCCTTTGGCCATGAAGCCTAGGGAGATTAGAGTATCGGTCGA', 'binding signal', 1.54),
  ('GTTCCGCGGTCCGCAGCGCTGGTGGCTGCAGCCTAGGGAGATTAGAGTATCGGTCGA', 'binding signal', -0.919),
  ('ATGACCTTTACCCCCATTTGGTAATGGGCCGCCTAGGGAGATTAGAGTATCGGTCGA', 'binding signal', 4.83),
  ('AGAGCACATTCTTCCATATAACCCTTGAACGCCTAGGGAGATTAGAGTATCGGTCGA', 'binding signal', 3.6),
  ('GGCCAGATAAAGCAGGTTGTACCTTGACCCGCCTAGGGAGATTAGAGTATCGGTCGA', 'binding signal', 8.92),
  ('TCATGTTCAATATACAGTTGGTATTTAGTAGCCTAGGGAGATTAGAGTATCGGTCGA', 'binding signal', 1.83),
  ('ATCAGTGTACCTGTCCCTACTCAATTATCAGCCTAGGGAGATTAGAGTATCGGTCGA', 'binding signal', -0.287),
  ('AACACTTACACCTGGGTGCTCCCTCCCCCTGCCTAGGGAGATTAGAGTATCGGTCGA', 'binding signal', 4.36),
  ('CTTTGGAACCTGCCCTCTGTCCCATGGTGTGCCTAGGGAGATTAGAGTATCGGTCGA', 'binding signal', 2.48),
  ('CTGCCCTTTGGAACCTGCCCTCTGTCCCATGCCTAGGGAGATTAGAGTATCGGTCGA', 'binding signal', 4.15),
  ('TGGAGCATGACCCTTTGCAGGTGGGAGAGGGCCTAGGGAGATTAGAGTATCGGTCGA', 'binding signal', 0.139),
  ('CAGATCCAGTGGACTCTCTGTTTGATCAGCGCCTAGGGAGATTAGAGTATCGGTCGA', 'binding signal', 1.51),
  ('ATGAAGATATATTCCTTCAGGAAGGCCTGTGCCTAGGGAGATTAGAGTATCGGTCGA', 'binding signal', 0.708),
  ('CCCCCACACCATTAGAGAACATGTACTTTGGCCTAGGGAGATTAGAGTATCGGTCGA', 'binding signal', 3.32),
  ('AAGCAGAAGCTGCACACATGTCAAAGGTCAGCCTAGGGAGATTAGAGTATCGGTCGA', 'binding signal', 6.19),
  ('ATTTTCCCACTTGTATGTCCAAGGGTCACTGCCTAGGGAGATTAGAGTATCGGTCGA', 'binding signal', 4.44),
  ('TTACCGGTGTGACTTTGGTTGGATTTCTTGGCCTAGGGAGATTAGAGTATCGGTCGA', 'binding signal', 1.54),
  ('ACTGACCTTTGAGAGTCAACACTGAAATAGGCCTAGGGAGATTAGAGTATCGGTCGA', 'binding signal', 1.42),
  ('TCCCCGTCACCCTCCCCGCCACCCCCCAGAGCCTAGGGAGATTAGAGTATCGGTCGA', 'binding signal', 7.45),
  ('TTCCATTGAAGCAGAGTGTCCCATATCACAGCCTAGGGAGATTAGAGTATCGGTCGA', 'binding signal', 0.724),
  ('TTTCCCTGGTCGACCTCCCCGTCACCCTCCGCCTAGGGAGATTAGAGTATCGGTCGA', 'binding signal', 4.15);
